# key: entry, value: selectivity: IC50 value for BALB/3T3 line times bigger than for leukemia cells MV4-11
# Tested on: BALB/3T3
# experiment-summary: In vitro antiproliferative assay on normal fibroblasts, SRB, 72 h
# Assay type: cell-based, mouse
# condition-parameters: IC50 BALB/3T3 versus IC50 MV4-11

Cc1ccc(-c2ccc(S(=O)(=O)NCC3C4CCC(C4)N3C(C)c3ccccc3)cc2)cc1 (stereo not shown) [Compound 11g] | > 10 times
COc1ccc(-c2ccc(S(=O)(=O)NC3CN(C(C)c4ccccc4)C4CCC3C4)cc2)cc1 (stereo not shown) | ~3 times
O=S(=O)(NC[C@H]1N[C@H]2CC[C@@H]1C2)c1ccc(-c2ccc(F)cc2)cc1 [Compound 10i] | ~4 times

# input for lookup
// recorded selectivity: IC50 value for BALB/3T3 line times bigger than for leukemia cells MV4-11 for CC(c1ccccc1)N1C2CCC(C2)C1CNS(=O)(=O)c1ccc(-c2ccccc2)cc1 (stereo not shown) [Compound 11f] : > 10 times
